Target: T1, IL-2Rβ/γ on M07e cells (human, UniProt P14784 27-551; P31785 23-369)
T1 sequence (looked up) 1: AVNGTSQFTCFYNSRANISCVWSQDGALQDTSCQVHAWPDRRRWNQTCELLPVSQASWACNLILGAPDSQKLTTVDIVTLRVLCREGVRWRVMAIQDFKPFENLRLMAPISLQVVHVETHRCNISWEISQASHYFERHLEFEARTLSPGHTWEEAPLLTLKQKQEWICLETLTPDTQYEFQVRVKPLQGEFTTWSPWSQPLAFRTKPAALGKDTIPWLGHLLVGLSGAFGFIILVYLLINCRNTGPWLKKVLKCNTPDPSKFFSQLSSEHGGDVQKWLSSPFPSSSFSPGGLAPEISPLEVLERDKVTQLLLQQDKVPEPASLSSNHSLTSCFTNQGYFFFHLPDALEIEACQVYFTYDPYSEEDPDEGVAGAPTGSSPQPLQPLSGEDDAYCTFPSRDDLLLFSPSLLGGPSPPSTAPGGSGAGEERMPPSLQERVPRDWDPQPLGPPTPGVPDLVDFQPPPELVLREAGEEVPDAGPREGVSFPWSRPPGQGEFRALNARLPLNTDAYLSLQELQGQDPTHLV
T1 sequence (looked up) 2: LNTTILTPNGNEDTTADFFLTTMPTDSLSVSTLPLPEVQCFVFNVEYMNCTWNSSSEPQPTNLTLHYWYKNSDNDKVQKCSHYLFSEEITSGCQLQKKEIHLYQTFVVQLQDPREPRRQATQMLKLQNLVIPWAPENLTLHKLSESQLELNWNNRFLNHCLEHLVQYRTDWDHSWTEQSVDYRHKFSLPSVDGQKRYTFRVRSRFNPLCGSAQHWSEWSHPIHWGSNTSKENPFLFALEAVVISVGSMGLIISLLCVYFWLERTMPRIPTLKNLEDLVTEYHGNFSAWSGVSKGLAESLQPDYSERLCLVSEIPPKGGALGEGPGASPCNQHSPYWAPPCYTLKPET
Experiment: cell-based or functional assay
Readout label: M07e cell proliferation activity (%) at 1.4 nM
Just the number in %, nothing appended.

Note to self: M07e cell proliferation activity (%) at 1.4 nM recorded for A-N88D (Fc fusion, also called PD-1-IL-2v (N88D); not shown: IgG1 hinge (C220S) + Fc Knob chain (L234A, L235A, S354C, T366W, EU); D356/L358 or E356/M358 ver; IgG1 hinge (C220S) + Fc Hole chain (L234A, L235A, Y349C, T366S, L368A, Y407V; may have H435R, Y436F; EU)) chain (part 1 of 2): EVQLVESGGGLVQPGGSLRLSCAASGLTFSDYSMSWYRQAPGKGRELVAIISGSGVITHYVDSVKGRFTISRDNAKNTLYLQMRSLRAEDTAVYYCRAVSDWEDYWGQGTQVTVSS chain (part 2 of 2): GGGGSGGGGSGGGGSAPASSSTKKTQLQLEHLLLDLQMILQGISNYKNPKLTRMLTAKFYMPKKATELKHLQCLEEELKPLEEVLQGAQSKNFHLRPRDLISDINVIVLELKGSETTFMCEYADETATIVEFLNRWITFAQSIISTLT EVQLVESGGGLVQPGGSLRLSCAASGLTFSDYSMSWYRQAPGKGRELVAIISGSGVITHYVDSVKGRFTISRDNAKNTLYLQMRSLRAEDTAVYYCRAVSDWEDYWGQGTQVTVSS was -1.1
